The following molecules are shown together with reported half-life at 1 μM values.
- test-protocol: Half-life in human liver microsomes (HLM)
- Format: in vitro ADME
- assay-context: human, human liver microsomes (HLM, HL101), pH 7.4; 1 μM compound, 0.78 mg/mL HLM, 37° C., NADPH
Return type: number; implicit unit h.

{"columns": ["molecule", "readout-kind", "reported"],
 "data": [
  ["CN1CCCc2ccc(NC(=O)c3ccc(/C=C/C(F)(F)F)cc3)cc21", "half-life at 1 μM", 1.33],
  ["COc1cc(/C=C/C(F)(F)F)ccc1C(=O)Nc1ccc2c(c1)OCCN2", "half-life at 1 μM", 1.25],
  ["O=C(Nc1ccc2c(c1)OCC(CO)N2)c1ccc(C#CC2CC2)cc1F (stereo not shown)", "half-life at 1 μM", 1.37],
  ["Cc1nc2cc(NC(=O)c3ccc(/C=C/C(F)(F)F)cc3C)ccc2s1", "half-life at 1 μM", 1.34]
]}

Give the reported value of half-life at 1 μM for this record: Cc1cc(/C=C/C(F)(F)F)ccc1C(=O)Nc1ccc2cc(CO)cnc2c1 1.27

Give the reported value of half-life at 1 μM for this record: Cc1cc(/C=C/C(F)(F)F)ccc1C(=O)Nc1ccc2c(c1)OCCN2 1.03

Give the reported value of half-life at 1 μM for this record: Cc1cc(C#CC(C)(C)C)ccc1C(=O)Nc1cccc2cnccc12 1.16

###

The following compounds are shown together with reported inhibition at 0.3 µM values.
- measured-on: VR1 (Homo sapiens, UniProt Q8NER1)
- Sequence (Q8NER1 whole entry): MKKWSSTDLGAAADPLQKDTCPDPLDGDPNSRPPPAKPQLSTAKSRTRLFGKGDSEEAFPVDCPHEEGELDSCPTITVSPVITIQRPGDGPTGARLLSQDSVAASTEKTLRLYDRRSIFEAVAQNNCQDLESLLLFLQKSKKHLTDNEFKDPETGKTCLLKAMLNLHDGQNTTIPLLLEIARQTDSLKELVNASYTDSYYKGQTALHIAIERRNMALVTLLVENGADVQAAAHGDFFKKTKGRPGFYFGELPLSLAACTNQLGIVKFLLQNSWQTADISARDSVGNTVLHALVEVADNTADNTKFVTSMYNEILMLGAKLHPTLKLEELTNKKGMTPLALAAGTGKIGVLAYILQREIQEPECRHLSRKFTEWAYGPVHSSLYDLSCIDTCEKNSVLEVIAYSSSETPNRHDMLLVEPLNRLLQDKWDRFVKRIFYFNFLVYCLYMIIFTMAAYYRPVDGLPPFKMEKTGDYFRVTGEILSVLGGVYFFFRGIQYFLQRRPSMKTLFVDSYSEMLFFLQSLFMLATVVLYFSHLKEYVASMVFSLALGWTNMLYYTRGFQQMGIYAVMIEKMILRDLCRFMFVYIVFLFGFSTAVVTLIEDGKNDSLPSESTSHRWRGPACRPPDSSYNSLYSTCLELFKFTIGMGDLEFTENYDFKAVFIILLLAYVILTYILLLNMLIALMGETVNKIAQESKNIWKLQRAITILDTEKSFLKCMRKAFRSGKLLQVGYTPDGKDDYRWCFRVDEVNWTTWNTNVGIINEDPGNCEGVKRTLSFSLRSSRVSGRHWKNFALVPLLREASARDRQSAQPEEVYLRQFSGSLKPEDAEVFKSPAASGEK
- test-protocol: Calcium uptake assay, low pH (proton) stimulus
- Format: cell-based
- Set-up: expressed in transfected cells; host or cells: T-REx HEK 293 (Invitrogen), pcDNA5/TO vector
- assay-context: HEK293; 0.3 μM compound; low pH agonist; HEK 293 cells expressing hVR1; read-out: Low pH % Inhib. @ 0.3 μM

The examples below pair each entry with its known result.
{"columns": ["compound", "readout-kind", "reported"],
 "data": [
  ["CC1(C)Oc2cc(NC(=O)c3ccc(/C=C/C(F)(F)F)cc3)ccc2NC1=O [Compound 71]", "inhibition at 0.3 µM", "10%"],
  ["CC(C)(C)C#Cc1ccc(C(=O)Nc2ccc3c(c2)OCCO3)cc1 [Compound 30]", "inhibition at 0.3 µM", "105%"]
]}

Now for a further compound.
Give the reported value of inhibition at 0.3 µM for this record: O=C(Nc1ccc2sc(CO)nc2c1)c1ccc(C#CC(F)(F)F)cc1 [Compound 54] 76%

###

- measured-on: VR1 (Homo sapiens, UniProt Q8NER1)
- test-protocol: Calcium uptake assay, low pH (proton) stimulus
- Type: cell-based
- Design: expressed in transfected cells; host or cells: T-REx HEK 293 (Invitrogen), pcDNA5/TO vector
- assay-context: HEK293; 0.3 μM compound; low pH agonist; HEK 293 cells expressing hVR1; read-out: Low pH % Inhib. @ 0.3 μM
readout-kind: inhibition at 0.3 µM (%)
Return type: number; implicit unit %.

The examples below pair each entry with its known result.
{"columns": ["molecule", "reported"],
 "data": [
  ["CC(C)(C)C#Cc1ccc(C(=O)Nc2ccc3c(c2)OCC(CO)N3)c(Cl)c1 (centres unmarked)", 107],
  ["Cn1ccc2cc(NC(=O)c3ccc(/C=C/C(F)(F)F)cc3)ccc21", 17],
  ["Cc1nc2cc(NC(=O)c3ccc(C#CC(C)(C)C)cc3C)ccc2[nH]1", 86],
  ["Cc1cc(C#CC(C)(C)C)ccc1C(=O)Nc1ccc2c(c1)C(=O)NC2=O", 88]
]}

Give the reported value of inhibition at 0.3 µM for this record: Cc1cc(C#CC(C)(C)C)ccc1C(=O)Nc1cnc2[nH]ccc2c1 97
